- target or system: His-tagged human recombinant kinase full-length Akt2 activated by PDK1 (Homo sapiens (Human), UniProt P31751)
- Sequence (P31751 whole entry): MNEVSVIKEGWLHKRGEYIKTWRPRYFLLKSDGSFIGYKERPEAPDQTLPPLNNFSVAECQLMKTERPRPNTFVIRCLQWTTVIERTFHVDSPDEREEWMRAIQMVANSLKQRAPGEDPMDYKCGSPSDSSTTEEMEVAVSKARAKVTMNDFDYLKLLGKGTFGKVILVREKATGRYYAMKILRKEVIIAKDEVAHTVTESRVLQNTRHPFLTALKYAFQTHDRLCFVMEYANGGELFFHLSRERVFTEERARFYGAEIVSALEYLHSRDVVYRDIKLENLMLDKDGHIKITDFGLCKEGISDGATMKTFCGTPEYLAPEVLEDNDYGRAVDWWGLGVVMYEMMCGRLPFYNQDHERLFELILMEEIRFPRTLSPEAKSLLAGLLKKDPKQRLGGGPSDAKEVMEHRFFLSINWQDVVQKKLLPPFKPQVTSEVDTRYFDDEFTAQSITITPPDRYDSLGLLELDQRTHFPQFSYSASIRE
- assay: Akt2 kinase assay (Akt2 TR-FRET assay, Biological Assay 2.0)
- Type: biochemical
- condition: 10 μM ATP, 1 μM biotinylated peptide substrate, 60 min at 22° C.
# T = IC50 below 40 nM (exclusive); F = IC50 at/above 40 nM

// known answers, use as guide
>  <compound>
OCc1cn2cc(-c3ccccc3)c(-c3ccc(CN4CC(c5n[nH]c(-c6ccccn6)n5)C4)cc3)nc2n1 [Example 75.0]

>  <discrete label>
F

$$$$
>  <compound>
Cc1cccc(-c2nc(C3CN(Cc4ccc(-c5nc6nc(C(C)C)nn6cc5-c5ccccc5)cc4)C3)n[nH]2)n1 [Example 31.0]

>  <discrete label>
T

$$$$
>  <compound>
Cc1nc2nc(-c3ccc(CN4CCC(c5n[nH]c(-c6cc(Cl)ccn6)n5)CC4)cc3)c(-c3ccc(F)cc3F)cn2n1 [Example 50.0]

>  <discrete label>
F

$$$$

For this compound, is IC50 lower than 40 nM? Cc1cccc(-c2nc(C3CN(Cc4ccc(-c5nc6nc(C)cn6c(NC(C)C)c5-c5ccccc5)cc4)C3)n[nH]2)n1 [Example 65.0]
T

For this compound, is IC50 lower than 40 nM? Cc1cccc(-c2nc(C3CN(Cc4ccc(-c5nc6nc(C)c(Br)n6cc5-c5ccccc5)cc4)C3)n[nH]2)n1 [Example 57.0]
T

For this compound, is IC50 lower than 40 nM? COc1nn2cc(-c3c(F)cccc3F)c(-c3ccc(CN4CC(c5n[nH]c(-c6ccccn6)n5)C4)cc3)nc2c1CO [Example 63.0]
F

For this compound, is IC50 lower than 40 nM? Fc1ccc2nc(C3CCN(Cc4ccc(-c5nc6ccnn6cc5-c5ccccc5)cc4)CC3)[nH]c2c1 [Example 18.0]
F
